The entries below come with measured IC50, authentic virus neutralization [NT-108] values attached.
molecular target: Authentic CoV2 (SARS-CoV-2 JPN/TY/WK-521); assay: cell-based or functional assay
Include the unit right after the number.

Worked set:
query: // fetch IC50, authentic virus neutralization [NT-108] given entry NT-108 (recombinant human IgG1/kappa antibody) (antibody, V domains shown) VH: EVQLQQSGPGLVKPSQTLSLTCSISGDSVSSNSAAWNWIRQSPSRGLEWLGRTYYRSKWYNDYAGTVKSRIAINPDTSKNQFSLHLNSVTPEDTAVYFCARVISVAGYAFDIWGQGTMVTVSS VL: EIVLTQSPGTLSLSPGERATLSCRASQSVSSTFLAWYQQKPGQAPRLLIYGASYMATGIPDRFSGSGSGTDFTLTISRLEPEDFAVYYCQQYGSSLTFGGGTKLEIK
result: 0.116 mg/L

query: // fetch IC50, authentic virus neutralization [NT-108] given entry NT-108, human IgG4 subclass (antibody, V domains shown) VH: EVQLQQSGPGLVKPSQTLSLTCSISGDSVSSNSAAWNWIRQSPSRGLEWLGRTYYRSKWYNDYAGTVKSRIAINPDTSKNQFSLHLNSVTPEDTAVYFCARVISVAGYAFDIWGQGTMVTVSS VL: EIVLTQSPGTLSLSPGERATLSCRASQSVSSTFLAWYQQKPGQAPRLLIYGASYMATGIPDRFSGSGSGTDFTLTISRLEPEDFAVYYCQQYGSSLTFGGGTKLEIK
result: 0.116 mg/L

Turning now to a further record.
query: // fetch IC50, authentic virus neutralization [NT-108] given entry NT-108, human IgG3 subclass (antibody, V domains shown) VH: EVQLQQSGPGLVKPSQTLSLTCSISGDSVSSNSAAWNWIRQSPSRGLEWLGRTYYRSKWYNDYAGTVKSRIAINPDTSKNQFSLHLNSVTPEDTAVYFCARVISVAGYAFDIWGQGTMVTVSS VL: EIVLTQSPGTLSLSPGERATLSCRASQSVSSTFLAWYQQKPGQAPRLLIYGASYMATGIPDRFSGSGSGTDFTLTISRLEPEDFAVYYCQQYGSSLTFGGGTKLEIK
result: 0.049 mg/L
